- method.description: Ex vivo metabolite analysis (plasma and brain) in healthy male Wistar rats
- Design: species or system rat
- measurement.context: rat brain, 15 min p.i.
Please respond with reported Intact tracer (%) for every item in the list.
Respond with the bare value in %.

So what does the record say about Intact tracer (%) for [11CH3]Oc1ccc(Cl)c(C(=O)NCC23CC4CC(CC(F)(C4)C2)C3)c1 [[^11C]2] ? 67

Bench note: what Intact tracer (%) did [11CH3]Oc1ccc(Cl)c(C(=O)NCC23CC4CC(CC(C4)C2)C3)c1 [[^11C]1] show? 82

Entry [11CH3]Oc1ccc(Cl)c(C(=O)NCC23CC4CC(F)(CC(F)(C4)C2)C3)c1 [[^11C]3] has what Intact tracer (%)? 62

Could you share which Intact tracer (%) value was measured for [11CH3]Oc1ccc(Cl)c(C(=O)NCC23CC4(F)CC(F)(CC(F)(C4)C2)C3)c1 [[^11C]SMW139] ? 79
